Entry source: PubChem BioAssay (NCI)

Assay method text: NCI Yeast Anticancer Drug Screen. Data for the sgs1 mgt1 strain (AID 161);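 also: 0% = growth of cultures given vehicle only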
Assay setup: S. cerevisiae sgs1 mgt1 strain, at 5.0 µM (retest, dose inferred, filed as 0.5), stronger effect = higher value
This is part of a sample that, as a whole, favours compounds with a hit. Of some 79,000 tested, about 15% had one in any assay.
Measurement name: growth inhibition (%)
Write the answer as a number in %, unit excluded.

Before answering, review these 8 worked examples.
| Molecule | growth inhibition [%] |
| --- | --- |
| Oc1cc[c]([Hg][Cl])cc1 | 100 |
| CCCCCNC(=O)c1c(O)[nH]c(=S)[nH]c1=O | 26 |
| CCN1/C(=C\c2ccc3cc(C)ccc3[n+]2CC)[Se]c2ccccc21 | 95 |
| N#Cc1ccc([Se]c2ccccc2)cc1 | -1 |
| CC(Br)CN1CCOCC1 (stereo unspecified) | 58 |
| COc1c(NC(=O)CC(C)=O)[c]([Hg][O]C(C)=O)c(OC)c(Cl)[c]1[Hg][O]C(C)=O | 81 |
| Cc1ccc2c(c1)SP(=S)(c1ccccc1)N2 (stereo unspecified) | 8 |
| C1CC[CH]([Sn]([CH]2CCCCC2)[CH]2CCCCC2)CC1.C1CC[CH]([Sn]([CH]2CCCCC2)[CH]2CCCCC2)CC1 | 4 |

Which growth inhibition value is on record for Oc1cccnc1[Se] ? -10

Which growth inhibition value is on record for CCc1ccc([O-])c(C=NCCCN(C)CCCN=Cc2cc(C)ccc2[O-])c1.[Co+3].[N-]=[N+]=[N-] ? -4

Which growth inhibition value is on record for CN(C)c1ccc(N=Cc2c([O-])ccc3ccccc23)cc1.[C-]#[O+].[C-]#[O+].[Ir] ? -17

Which growth inhibition value is on record for CCCCN(C)CC(C(C)=O)C(c1ccccc1)c1c(O)c2ccccc2oc1=O (stereo unspecified) ? 11

Which growth inhibition value is on record for C[C@H]1C/C=C/[C@H]2[C@@H]3O[C@]3(C)[C@@H](C)[C@H]3[C@H](Cc4ccccc4)NC(=O)[C@]32OC(=O)O/C=C/[C@@](C)(O)C1=O ? 19

Which growth inhibition value is on record for CCC[CH2][Sn]([CH2]CCC)([S]C#N)[S]C#N ? 93

Which growth inhibition value is on record for O=C(CCCC(=O)NNC(=O)Nc1cccc(S(=O)(=O)F)c1)NNC(=O)Nc1cccc(S(=O)(=O)F)c1 ? 3

Which growth inhibition value is on record for CCOC(=O)NC(=S)[S][Sb]([S]C(=S)NC(=O)OCC)[S]c1nc2ccc(N=Nc3ccc(NS(=O)(=O)c4ccc(NC(=O)C(N5CC5)(N5CC5)N5CC5)cc4)cc3)cc2s1 ? 46

Which growth inhibition value is on record for Br[C](Br)(Br)[Hg][c]1ccccc1 ? 100

Which growth inhibition value is on record for CCNC(=O)O/N=C1/C=C2CC[C@@H]3C(CC[C@@]4(C)C3CC[C@@H]4OC(=O)NCC)[C@@]2(C)CC1 (stereo partly specified) ? 97

Which growth inhibition value is on record for CC(NCCN(C)C)C1CC2CCCCN2C1 (stereo unspecified) ? -13
